// data source = PubChem BioAssay (NCI)

# ASSAY REMARKS: NCI Yeast Anticancer Drug Screen. Data for the cln2 rad14 strain (AID 165)
# CONDITION INFO: S. cerevisiae cln2 rad14 strain, at 5.0 µM (retest, dose inferred, filed as 0.5)
About 79,000 compounds went through this panel and 15% of them were active in at least one assay; those are over-represented in the sample as a whole. The source made the active and inactive calls. Rule as the data show it: active = growth inhibition above about 70%; inactive = the rest.
Labels: Yes = active, No = inactive

| MOLECULE | CLASS LABEL |
| --- | --- |
| COc1cc2c(c(OC)c1OC)-c1c(cc3c(c1OC)OCO3)CC(C)C(C)(O)C2OC(=O)c1ccccc1 (configuration not stated) | No |
| N#CN1C2CCC1CC(=O)C2 | No |
| CC(C)(Br)C(=O)/C=C/c1ccc(Cl)c(Cl)c1 | No |
| O=c1ssc2ncccc12 | No |
| Fc1ccc(NC(=S)SCc2ccc(Cl)c(Cl)c2)cc1F | No |
| O=[n+]1c2ccc(Cl)cc2n([O-])c2ccc(Cl)cc21 | No |
| OC(c1ccc(F)cc1)(c1ccc(F)cc1)C1CC1 | No |
| CN1Cc2ccccc2/C=C\c2ccccc21 | No |
| N#CN=Nc1cc(Cl)c(N=NC#N)cc1Cl | No |
| S=C(S)NN1CCOCC1 | Yes |
| O=C(NCCCCNCCCNC(=O)c1cc(-c2ccccc2)nc2ccccc12)c1cc(-c2ccccc2)nc2ccccc12 | No |
| Cc1ccc(S(=O)(=O)NNC(=S)Nc2cccc3ccccc23)cc1 | No |
